# credit: paper PMC11314063

assay: SRB cytotoxicity assay, hepatocyte HL-7702; type: cell-based, human; details: HL-7702 hepatocyte cell line; SRB assay, 48 h, human hepatocyte, mean ± SD; read-out: IC50 Cytotoxicity HL-7702
measureName: IC50 at 48 h

I would be grateful if you could share the reported IC50 at 48 h for "COc1ccc(/C=C/C(=O)c2ccc(O)c(O[C@@H]3O[C@H](CO)[C@@H](O)[C@H](O)[C@H]3O)c2O)cc1O" .
> 200 µM

I would be grateful if you could share the reported IC50 at 48 h for "COc1ccc(-c2oc3cc(O[C@@H]4O[C@H](CO)[C@@H](O)[C@H](O)[C@H]4O)c(OC)c(O)c3c(=O)c2OC)cc1O" .
> 200 µM

I would be grateful if you could share the reported IC50 at 48 h for "COc1c(O[C@@H]2O[C@H](CO)[C@@H](O)[C@H](O)[C@H]2O)cc2oc(-c3ccc(O)c(O)c3)c(OC)c(=O)c2c1O" .
> 200 µM

I would be grateful if you could share the reported IC50 at 48 h for "C=C[C@H](O)[C@H](/C=C/C#CC#CC#CC)O[C@@H]1O[C@H](CO)[C@@H](O)[C@H](O)[C@H]1O" .
> 200 µM
